# target-desc: UniProt:P11234
# Sequence (P11234 1-203): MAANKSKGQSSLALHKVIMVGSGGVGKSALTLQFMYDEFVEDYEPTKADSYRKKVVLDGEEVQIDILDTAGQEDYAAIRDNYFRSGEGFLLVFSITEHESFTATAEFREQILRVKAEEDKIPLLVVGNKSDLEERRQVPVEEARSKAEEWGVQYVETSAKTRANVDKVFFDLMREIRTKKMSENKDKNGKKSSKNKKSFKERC
# test-protocol: GST-RalBP1 pulldown of RalB-GTP from RBC8-treated, CRP-stimulated human platelets, immunoblot densitometry
value-type: IC50
Remember to quote the unit after the number.

Task: Query: IC50; subject: COc1ccc(OC)c(C2C(C#N)=C(N)Oc3n[nH]c(-c4ccc5ccccc5c4)c32)c1 (stereo not shown)
Output: 2.3 µM
